Target or system arginase II (ARG II) (Homo sapiens, UniProt P78540); recorded quantity IC50.

IN: Item NC(CCCCB(O)O)(C(=O)O)[C@H]1C[C@@H](NCc2ccc(-c3ccccc3)nc2)C1 (some centres unmarked) [Example 23] has what recorded IC50?
OUT: 0.1 to 25 nM

IN: Try the compound NC(CCCCB(O)O)(C(=O)O)[C@H]1C[C@@H](N(Cc2ccccc2)Cc2ccccc2)C1 (some centres unmarked) [Example 27]
OUT: 501 to 1500 nM

IN: Do the same for NC(CCCCB(O)O)(C(=O)O)[C@H]1C[C@@H](NCc2ccc3c(c2)CCO3)C1 (some centres unmarked) [Example 15] please
OUT: 26 to 100 nM

IN: Another compound to check: NC(CCCCB(O)O)(CCCN1Cc2ccccc2C1)C(=O)O (centres unmarked) [Example 39]
OUT: 101 to 500 nM

IN: What do we get for NC(CCCCB(O)O)(C(=O)O)C1CC2CCC(C1)N2Cc1ccccc1 (centres unmarked) [Example 62] ?
OUT: 26 to 100 nM

Values from patent US9266908B2
